substrate: CC(=O)C=O; experiment: Methylglyoxal reductase kinetic parameters of purified enzyme (NAD(P)H consumption at 340 nm); type: biochemical, Escherichia coli; settings: other: substrate methylglyoxal 0.1-40 mM, cofactor NADPH, 20mM Hepes (pH7.5), 30°C, pH 7.5
experimental.endpoint: Km (mM)
Give just the number in mM; leave the unit off.

Fill in the blank: the reported Km of Escherichia coli YafB (2,5-diketo-D-gluconic acid reductase B, Uniprot P30863), SEQ ID NO: 99 (Escherichia coli K-12) (protein) MAIPAFGLGTFRLKDDVVISSVITALELGYRAIDTAQIYDNEAAVGQAIAESGVPRHELYITTKIWIENLSKDKLIPSLKESLQKLRTDYVDLTLIHWPSPNDEVSVEEFMQALLEAKKQGLTREIGISNFTIPLMEKAIAAVGAENIATNQIELSPYLQNRKVVAWAKQHGIHITSYMTLAYGKALKDEVIARIAAKHNATPAQVILAWAMGEGYSVIPSSTKRKNLESNLKAQNLQLDAEDKKAIAALDCNDRLVSPEGLAPEWD is ____.
8.20

Sourced from patent EP3196312B1
